Measured values drawn from patent US20200199102A1 for this set.

Biological target: Cyclophilin A (Homo sapiens, UniProt P62937)
Construct: made in house
Sequence (P62937 whole entry, species assumed): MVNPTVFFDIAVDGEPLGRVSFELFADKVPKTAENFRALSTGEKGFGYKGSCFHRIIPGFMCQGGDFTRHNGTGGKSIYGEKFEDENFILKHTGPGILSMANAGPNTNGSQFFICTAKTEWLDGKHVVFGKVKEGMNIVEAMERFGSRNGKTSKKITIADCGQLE
Assay: AlphaLISA inhibition of binding of biotinylated Cyclosporin A to FLAG tagged Cyclophilin A
Conditions: AlphaLISA signal; test concentration not given
Where a SMILES comes first, the peptide text is derived from it. [ ]: non-standard residue; d: D form. MeBmt = C/C=C/C[C@@H](C)[C@@H](O)[C@H](NC)C(=O)O; NMeL = CN[C@@H](CC(C)C)C(=O)O; NMeNva = CCC[C@H](NC)C(=O)O; NMeV = CN[C@H](C(=O)O)C(C)C; Abu = CC[C@H](N)C(=O)O; Sar = CNCC(=O)O
measured.metric: % signal (%)
Report the figure in % without appending any unit label.

Some compounds with known % signal results, for comparison:
{"compound": "C/C=C/C[C@@H](C)[C@@H](O)[C@H]1C(=O)N[C@@H](CC)C(=O)N(C)CC(=O)N(C)[C@@H](CC(C)C)C(=O)N[C@@H](C(C)C)C(=O)N(C)[C@@H](CC(C)C)C(=O)N[C@@H](CC(C)C)C(=O)N[C@H](C)C(=O)N(C)[C@@H](CC(C)C)C(=O)N(C)[C@@H](CC(C)C)C(=O)N(C)[C@@H](C(C)C)C(=O)N1C [Compound C50]", "system": "Cyclophilin A (Homo sapiens, UniProt P62937)", "uom": "%", "% signal": 6.06}
{"compound": "C/C=C/C[C@@H](C)[C@@H](O)[C@H]1C(=O)N[C@@H](CC)C(=O)N(C)CC(=O)N(C)[C@@H](CCC)C(=O)N[C@@H](C(C)C)C(=O)N(C)[C@@H](CC(C)C)C(=O)N[C@@H](CC(C)C)C(=O)N[C@H](C)C(=O)N(C)[C@@H](CC(C)C)C(=O)N(C)[C@@H](CC(C)C)C(=O)N(C)[C@@H](C(C)C)C(=O)N1C [Compound C54] (cyclo([MeBmt][Abu][Sar][NMeNva]V[NMeL]L[dA][NMeL][NMeL][NMeV]))", "system": "Cyclophilin A (Homo sapiens, UniProt P62937)", "uom": "%", "% signal": 0.90}

Please state recorded % signal (tested on Cyclophilin A (Homo sapiens, UniProt P62937)) of C/C=C/C[C@@H](C)[C@@H](O)[C@H]1C(=O)N[C@@H](CC)C(=O)N(C)CC(=O)N(C)[C@@H](Cc2ccc(O)cc2)C(=O)N[C@@H](C(C)C)C(=O)N(C)[C@@H](CC(C)C)C(=O)N[C@@H](C)C(=O)N[C@H](C)C(=O)N(C)[C@@H](CC(C)C)C(=O)N(C)[C@@H](CC(C)C)C(=O)N(C)[C@@H](C(C)C)C(=O)N1C [Compound C39]
3.78

---

Biological target: Cyclophilin A (Homo sapiens, UniProt P62937)
Construct: made in house
Assay: AlphaLISA inhibition of binding of biotinylated Cyclosporin A to FLAG tagged Cyclophilin A
Details: test concentration not given
Protocol: The binding of compounds of the invention to Cyclophilin A can be determined using the following protocol. […] Add 20 uL of 6 nM Biotinylated CsA working stock to each well of the 96-well plate. […] Protect plate from light until reading on Biotek Synergy2 Plate Reader; Alphalisa 96-well protocol (680 excitation/615 emission).
Where a SMILES comes first, the peptide text is derived from it. [ ]: non-standard residue; d: D form. MeBmt = C/C=C/C[C@@H](C)[C@@H](O)[C@H](NC)C(=O)O; NMeI = CC[C@H](C)[C@H](NC)C(=O)O; NMeL = CN[C@@H](CC(C)C)C(=O)O; NMeV = CN[C@H](C(=O)O)C(C)C; NMeA = CN[C@@H](C)C(=O)O; Abu = CC[C@H](N)C(=O)O; Sar = CNCC(=O)O
Parameter: % inhibition of CsA binding to Cyclophilin A. Scope: all listed entries.
Report the figure in % without appending any unit label.

{"compound": "C/C=C/C[C@@H](C)[C@@H](O)[C@H]1C(=O)N[C@@H](CC)C(=O)N(C)CC(=O)N(C)[C@@H]([C@@H](C)CC)C(=O)N[C@@H](C(C)C)C(=O)N(C)[C@@H](C)C(=O)N[C@@H](C)C(=O)N[C@H](C)C(=O)N(C)[C@@H](CC(C)C)C(=O)N(C)[C@@H](CC(C)C)C(=O)N(C)[C@@H](C(C)C)C(=O)N1C [Compound C1] (cyclo([MeBmt][Abu][Sar][NMeI]V[NMeA]A[dA][NMeL][NMeL][NMeV]))", "system": "Cyclophilin A (Homo sapiens, UniProt P62937)", "uom": "%", "reported": 99.44}
{"compound": "C/C=C/C[C@@H](C)[C@@H](O)[C@H]1C(=O)N[C@@H](CC)C(=O)N(C)CC(=O)N(C)[C@@H](C)C(=O)N[C@@H](C(C)C)C(=O)N(C)[C@@H](C)C(=O)N[C@@H](CC(C)C)C(=O)N[C@H](C)C(=O)N(C)[C@@H](CC(C)C)C(=O)N(C)[C@@H](CC(C)C)C(=O)N(C)[C@@H](C(C)C)C(=O)N1C [Compound C82] (cyclo([MeBmt][Abu][Sar][NMeA]V[NMeA]L[dA][NMeL][NMeL][NMeV]))", "system": "Cyclophilin A (Homo sapiens, UniProt P62937)", "uom": "%", "reported": 99.23}

In the following, a different compound is considered.
For the compound shown here, C/C=C/C[C@@H](C)[C@@H](O)[C@H]1C(=O)N[C@@H](CC)C(=O)N(C)CC(=O)N(C)[C@@H]([C@@H](C)CC)C(=O)N[C@@H](CC(C)C)C(=O)N(C)[C@@H](CC(C)C)C(=O)N[C@@H](CC(C)C)C(=O)N[C@H](C)C(=O)N(C)[C@@H](CC(C)C)C(=O)N(C)[C@@H](CC(C)C)C(=O)N(C)[C@@H](C(C)C)C(=O)N1C [Compound C57] (cyclo([MeBmt][Abu][Sar][NMeI]L[NMeL]L[dA][NMeL][NMeL][NMeV])) , give the reported % inhibition of CsA binding to Cyclophilin A.
99.85

---

Target: Cyclophilin A (Homo sapiens)
Construct: made in house
Assay: AlphaLISA inhibition of binding of biotinylated Cyclosporin A to FLAG tagged Cyclophilin A
Conditions: AlphaLISA signal; test concentration not given
Where a SMILES comes first, the peptide text is derived from it. [ ]: non-standard residue; d: D form. MeBmt = C/C=C/C[C@@H](C)[C@@H](O)[C@H](NC)C(=O)O; NMeI = CC[C@H](C)[C@H](NC)C(=O)O; NMeT = CN[C@H](C(=O)O)[C@@H](C)O; NMeL = CN[C@@H](CC(C)C)C(=O)O; NMeNle = CCCC[C@H](NC)C(=O)O; Tle = CC(C)(C)[C@H](N)C(=O)O; NMeV = CN[C@H](C(=O)O)C(C)C; NMeA = CN[C@@H](C)C(=O)O; Abu = CC[C@H](N)C(=O)O; Sar = CNCC(=O)O
Parameter: % signal. Scope: all listed entries.
Report the figure in % without appending any unit label.

Some molecules with known % signal results, for comparison:
{"molecule": "C/C=C/C[C@@H](C)[C@@H](O)[C@H]1C(=O)N[C@@H](CC)C(=O)N(C)CC(=O)N(C)[C@@H](CCCC)C(=O)N[C@@H](C(C)(C)C)C(=O)N(C)[C@@H](C)C(=O)N[C@@H](CC(C)C)C(=O)N[C@H](C)C(=O)N(C)[C@@H](CC(C)C)C(=O)N(C)[C@@H](CC(C)C)C(=O)N(C)[C@@H](C(C)C)C(=O)N1C [Compound C80] (cyclo([MeBmt][Abu][Sar][NMeNle][Tle][NMeA]L[dA][NMeL][NMeL][NMeV]))", "% signal [%]": 3.35}
{"molecule": "C/C=C/C[C@@H](C)[C@@H](O)[C@H]1C(=O)N[C@@H](CC)C(=O)N(C)CC(=O)N(C)[C@@H]([C@@H](C)CC)C(=O)N[C@@H](C(C)C)C(=O)N(C)CC(=O)N[C@@H](C)C(=O)N[C@H](C)C(=O)N(C)[C@@H](CC(C)C)C(=O)N(C)[C@@H](CC(C)C)C(=O)N(C)[C@@H](C(C)C)C(=O)N1C [Compound C25] (cyclo([MeBmt][Abu][Sar][NMeI]V[Sar]A[dA][NMeL][NMeL][NMeV]))", "% signal [%]": 0.37}

In the following, a different molecule is considered.
For the molecule shown here, C/C=C/C[C@@H](C)[C@@H](O)[C@H]1C(=O)N[C@@H](CC)C(=O)N(C)CC(=O)N(C)[C@@H]([C@@H](C)O)C(=O)N[C@@H](C)C(=O)N(C)CC(=O)N[C@@H](C)C(=O)N[C@H](C)C(=O)N(C)[C@@H](CC(C)C)C(=O)N(C)[C@@H](CC(C)C)C(=O)N(C)[C@@H](C(C)C)C(=O)N1C [Compound C23] (cyclo([MeBmt][Abu][Sar][NMeT]A[Sar]A[dA][NMeL][NMeL][NMeV])) , give the reported % signal.
1.28
